tested on: HIV-1 (strain IIIB); assay: microbe, parasite or virus in culture; format: cell-based; settings: Human immunodeficiency virus 1, 120 h; MT4 cells infected with HIV-1 strain IIIB, 5 days; lower line of each compound's entry; read-out: IC50 (MT-4 cells)
pIC50: −log10 of the molar value.
Overview of reported pIC50 across a group of compounds:

>  <compound>
COc1ccc(S(=O)(=O)N(C[C@@H](O)[C@H](Cc2ccccc2)NC(=O)OC2CO[C@H]3OCC[C@@H]23)OC2CCCCC2)cc1 (stereo partly drawn)

>  <pIC50>
≥ 7.00

$$$$
>  <compound>
COc1ccc(S(=O)(=O)N(C[C@@H](O)[C@H](Cc2ccccc2)NC(=O)OC(C)(C)C)OCC2CCCCO2)cc1 (stereo partly drawn)

>  <pIC50>
< 6.00

$$$$
>  <compound>
Nc1cccc(S(=O)(=O)N(C[C@@H](OP(=O)(O)O)[C@H](Cc2ccccc2)NC(=O)O[C@H]2CO[C@H]3OCC[C@H]32)OC2CCCC2)c1

>  <pIC50>
6.30 to 7.00

$$$$

Form entry - test system: HIV-1 (strain IIIB); read-out: pIC50; compound: CON(C)C(=O)CNc1cccc(S(=O)(=O)N(CC(O)C(Cc2ccccc2)NC(=O)OC2COC3OCCC23)OC2CCCC2)c1 (mixture of isomers) ≥ 7.00

Would you mind doing COc1ccc(S(=O)(=O)N(C[C@@H](O)[C@H](Cc2ccccc2)NC(=O)OC(C)(C)C)OCC2CCCCC2)cc1 as well? < 6.00

Would you mind doing COc1ccc(S(=O)(=O)N(C[C@@H](O)[C@H](Cc2ccccc2)NC(=O)O[C@H]2CCOC2)OC2CCOCC2)cc1 as well? 6.00 to 6.30

Would you mind doing CCN(C)C(=O)CNc1cccc(S(=O)(=O)N(CC(O)C(Cc2ccccc2)NC(=O)OC2COC3OCCC23)OC2CCCC2)c1 (mixture of isomers) as well? ≥ 7.00

Would you mind doing CC(C)ON(C[C@@H](O)[C@H](Cc1ccccc1)NC(=O)OC(C)(C)C)S(=O)(=O)c1ccc(N)c(N)c1 as well? < 6.00

----------
Overview of reported IC50 across a group of compounds:
system: HIV-1 (strain IIIB); test: microbe, parasite or virus in culture; type: cell-based; conditions: Human immunodeficiency virus 1, 120 h; MT4 cells infected with HIV-1 strain IIIB, 5 days; lower line of each compound's entry; read-out: IC50 (MT-4 cells)

Below, 3 compounds whose answers are already recorded.
>  <compound>
CC(C)ON(C[C@@H](O)[C@H](Cc1ccccc1)NC(=O)OC(C)(C)C)S(=O)(=O)c1ccc2[nH]c(=O)[nH]c2c1

>  <IC50>
> 1000 nM

$$$$
>  <compound>
O=C(N[C@@H](Cc1ccccc1)[C@H](O)CN(OC1CCCC1)S(=O)(=O)c1cccc(OCC(=O)N2CCOCC2)c1)O[C@H]1CO[C@H]2OCC[C@H]21

>  <IC50>
≤ 100 nM

$$$$
>  <compound>
Nc1nc2ccc(S(=O)(=O)N(C[C@@H](O)[C@H](Cc3ccccc3)NC(=O)OC3COCOC3)OC3CCCC3)cc2s1

>  <IC50>
≤ 100 nM

$$$$

Which IC50 value belongs to CNc1cccc(S(=O)(=O)N(C[C@@H](O)[C@H](Cc2ccccc2)NC(=O)O[C@H]2CO[C@H]3OCC[C@H]32)OC2CCCC2)c1 ? ≤ 100 nM

Would you mind doing O=C(N[C@@H](Cc1ccccc1)[C@H](O)CN(OC1CCCC1)S(=O)(=O)c1ccc2cn[nH]c2c1)OC1COCOC1 as well? 100 to 500 nM

Would you mind doing O=C(N[C@@H](Cc1ccccc1)[C@@H](CN(OC1CCCC1)S(=O)(=O)c1ccc2c(c1)OCO2)OP(=O)(O)O)O[C@H]1CO[C@H]2OCC[C@H]21 as well? ≤ 100 nM

Would you mind doing CONC(=O)CNc1cccc(S(=O)(=O)N(CC(O)C(Cc2ccccc2)NC(=O)OC2COC3OCCC23)OC2CCCC2)c1 (mixture of isomers) as well? ≤ 100 nM

Would you mind doing O=C(N[C@@H](Cc1ccccc1)[C@H](O)CN(OC1CCCCC1)S(=O)(=O)c1cccc(O)c1)O[C@H]1CO[C@H]2OCC[C@H]21 as well? ≤ 100 nM

The reported measurements were obtained from patent US20040097594A1.
